Test system: anti-SRBC antibody
Experiment: Sheep Red Blood Cell (SRBC) hemolysis test, anti-SRBC antibody formation
Type: in vivo, BALB/c mice
Conditions: peptide 0.5 μg/kg/day i.p. 15 days, SRBC on day 12; IFN-γ and IL-2 groups 3×10^5 IU/kg/day; X ± SD
Marks after values point to notes of the source that are not given here. No end group written: not given here.
Below, each entry is listed with its recorded anti-SRBC antibody formation (sample serum index).

Query PSIVGRPRHQGVM [CMS015] yields anti-SRBC antibody formation (sample serum index) of 13 ± 4* Unit

Sure, the documented anti-SRBC antibody formation (sample serum index) for LRVAPEEHPTL [CMS009] is 2 ± 1* Unit

The substance VVYPWTQRF [CMS002] showed anti-SRBC antibody formation (sample serum index) equal to 4 ± 1* Unit

The reported anti-SRBC antibody formation (sample serum index) of the substance VGMGEKDSY [CMS018] was 3 ± 1* Unit

Reported anti-SRBC antibody formation (sample serum index) ( VGMGQKDSY [CMS019] ) = 12 ± 3* Unit

get_value(item= VAPEEHPTLLTEAPLNPK [CMS010] , readout=anti-SRBC antibody formation (sample serum index)) returns 10 ± 3* Unit

Input TTYNSIM [CMS026] . Output anti-SRBC antibody formation (sample serum index): 19 ± 6* Unit

For this substance ( RVAPEEHPTL [CMS011] ), measured anti-SRBC antibody formation (sample serum index) is 5 ± 3* Unit

anti-SRBC antibody formation (sample serum index) reported for this substance MATAASSSSL [CMS021] : 57 ± 9*^@ Unit
